# Test system: OVCAR-4
# assay.name: NCI tumour cell line growth inhibition, 48 h
Calls of active or inactive are those of the source. Rule as the data show it: active = GI50 up to about 1.1 µM and inactive = higher.
Outcome codes: TRUE for active, FALSE for inactive

{"molecule": "C=C(C)C(=O)OC1CC2(C)OC(=CC2=O)C(C)CC2OC(=O)C(=C)C12 (configuration not stated)", "class": "FALSE"}
{"molecule": "Cc1ccc(/C=C2\\CN(C)CC3=C2OC(N)=C(C#N)C3c2ccc(C)cc2)cc1 (configuration not stated)", "class": "FALSE"}
{"molecule": "COc1cccc(C2SCc3nc4ccccc4n32)c1 (configuration not stated)", "class": "FALSE"}
{"molecule": "COC(=O)C1(Cc2ccccc2)Cc2cc3c(cc2C1=O)CCC3 (configuration not stated)", "class": "FALSE"}
{"molecule": "C[C@]12CC[C@@H]3c4cc(Br)c(O)c(Br)c4CC[C@H]3[C@@H]1CC(Br)C2=O (some centres not stated)", "class": "FALSE"}
{"molecule": "COc1ccc(Cc2cc(OC)c(OC)c(OC)c2)cc1", "class": "FALSE"}
{"molecule": "CSc1c(C#N)c2n(c3ccccc13)c1ccccc1[n+]2C", "class": "FALSE"}
{"molecule": "C=C1CCC2[C@](C)(CCC[C@]2(C)C(=O)O)[C@@H]1CCc1ccoc1 (some centres not stated)", "class": "FALSE"}
{"molecule": "Cc1ccc(C(=O)Nc2ncn(C3CC(O)C(CO)O3)c(=O)n2)cc1 (configuration not stated)", "class": "FALSE"}
{"molecule": "Cc1nc2ccccc2nc1NS(=O)(=O)c1ccc(N)cc1", "class": "FALSE"}
{"molecule": "O=C(O)/C=C/c1ccc(OS(=O)(=O)O)cc1", "class": "FALSE"}
{"molecule": "Nc1nc(NCC2(CO)CC(CCc3ccccc3)C2)cc(=O)[nH]1 (configuration not stated)", "class": "FALSE"}
{"molecule": "O=C1C(=O)N(c2ccc(Cl)c(Cl)c2)C(=O)C(=O)C1c1nc2ccccc2o1", "class": "FALSE"}
{"molecule": "CC(=O)[C@]1(O)Cc2c(O)c3c(c(O)c2C(OC2OC(C)C(O)C(O)C2F)C1)C(=O)c1ccccc1C3=O (some centres not stated)", "class": "TRUE"}
{"molecule": "Cc1nn(C(=O)c2ccc(Cl)cc2)c2c1C(c1ccc(Cl)cc1)SC(=N)N2 (configuration not stated)", "class": "FALSE"}
{"molecule": "O=C1c2ccccc2C(=O)c2c(NCC(O)CO)ccc(NCC(O)CO)c21 (configuration not stated)", "class": "FALSE"}
{"molecule": "O=C1c2ccccc2C(=O)c2nn(N=P(CP(=Nn3nc4c(n3)C(=O)c3ccccc3C4=O)(c3ccccc3)c3ccccc3)(c3ccccc3)c3ccccc3)nc21", "class": "FALSE"}
{"molecule": "NC(=O)N/N=C(\\Cc1nc2ccc(Cl)cc2nc1O)C(=O)Nc1ccc(Cl)cc1Cl", "class": "FALSE"}
{"molecule": "CCN(CC)CCNc1ccc2nnn3c4ccc(OCCN(CC)CC)cc4c(=O)c1c23", "class": "FALSE"}
{"molecule": "CC(=O)OCC1OC(OC2CC3C(C)(C)C(OC(C)=O)CC[C@]3(C)C3CCC45CC4(CCC5[C@@H](C)C[C@H](O)C(O)C(C)(C)O)[C@]23C)C(O)C(O)C1O (some centres not stated)", "class": "FALSE"}
{"molecule": "O=NN(Cc1ccc(Cl)cc1)C(C(=O)O)c1ccccc1 (configuration not stated)", "class": "FALSE"}
{"molecule": "Clc1nncc2sc(-c3ccccc3)nc12", "class": "FALSE"}
{"molecule": "COc1cc(NCC2COc3c(ccc(OC)c3OC)C2=O)c([N+](=O)[O-])cc1OC (configuration not stated)", "class": "FALSE"}
{"molecule": "C#C/C=C/CC1OC(C(Br)CC)CC(Br)C2CC1O2 (configuration not stated)", "class": "FALSE"}
{"molecule": "O[C@]12c3ccccc3C1CCCC2N1CCOCC1 (some centres not stated)", "class": "FALSE"}
{"molecule": "C/C(=N\\N=C(/S)N(C)C)c1cccc[n+]1[O-]", "class": "FALSE"}
{"molecule": "COc1ccc(NC(=O)CC(=O)N2N=C(N(c3ccccc3)c3ccccc3)CC2c2ccccc2)cc1 (configuration not stated)", "class": "FALSE"}
{"molecule": "NC(CCCCNc1ccn(C2OC(CO)C(O)C2O)c(=O)n1)C(=O)O (configuration not stated)", "class": "FALSE"}
{"molecule": "Nc1n[nH]c2nc3ccc(C(F)(F)F)cc3nc12", "class": "FALSE"}
{"molecule": "O=C(/C=C/c1ccccc1)CCc1c(O)c2ccccc2oc1=O", "class": "FALSE"}
{"molecule": "C=CC[C@@]1([C@H](C=C)COCc2ccc(OC)cc2)CC[C@]2(C)OC(C)(C)[C@@H](c3ccccc3)N2C1=S", "class": "FALSE"}
{"molecule": "COc1cccc(/C=N/n2c(Cc3ccc(Cl)cc3)n[nH]c2=O)c1", "class": "FALSE"}
{"molecule": "Cc1csc(-c2cn(C)c3c2C(=O)C(=N)C=C3O)n1", "class": "FALSE"}
{"molecule": "OC[C@H]1CCCC1O (some centres not stated)", "class": "FALSE"}
{"molecule": "CCN(CC)c1ccc2c(c1)OC(=O)C(c1nnc(-c3ccc([N+](=O)[O-])cc3)o1)C2 (configuration not stated)", "class": "FALSE"}
{"molecule": "Cc1c2c(c(C)c3c4c(oc13)CCCC4)C=NCC2", "class": "FALSE"}
{"molecule": "CC(C)=CCC1=C(O)C(=O)c2ccccc2C1=O [LAPACHOL]", "class": "FALSE"}
{"molecule": "O=C(/C=C/c1ccc(O)cc1)c1ccc(O)cc1 [4,4'-DIHYDROXYCHALCONE]", "class": "FALSE"}
{"molecule": "C=C1CN=C(Nc2ccc(Cl)cc2)S1", "class": "FALSE"}
{"molecule": "CC(C(=O)OCc1ccccc1)N(Cc1ccccc1)Cc1ccccc1 (configuration not stated)", "class": "FALSE"}
{"molecule": "CC(=O)NNc1nc(C)c(C(=O)NNC(=O)C(=O)Nc2c(C)cccc2C(C)(C)C)s1", "class": "FALSE"}
{"molecule": "O=C(O)C12CC3CC(C1)C2C=C3P(=O)(O)O (configuration not stated)", "class": "FALSE"}
